- target_entity: T1, EsCas13d, nuclease-dead (Eubacterium siraeum, UniProt B0MS50, R295A;H300A;R849A;H854A)
- T1 sequence: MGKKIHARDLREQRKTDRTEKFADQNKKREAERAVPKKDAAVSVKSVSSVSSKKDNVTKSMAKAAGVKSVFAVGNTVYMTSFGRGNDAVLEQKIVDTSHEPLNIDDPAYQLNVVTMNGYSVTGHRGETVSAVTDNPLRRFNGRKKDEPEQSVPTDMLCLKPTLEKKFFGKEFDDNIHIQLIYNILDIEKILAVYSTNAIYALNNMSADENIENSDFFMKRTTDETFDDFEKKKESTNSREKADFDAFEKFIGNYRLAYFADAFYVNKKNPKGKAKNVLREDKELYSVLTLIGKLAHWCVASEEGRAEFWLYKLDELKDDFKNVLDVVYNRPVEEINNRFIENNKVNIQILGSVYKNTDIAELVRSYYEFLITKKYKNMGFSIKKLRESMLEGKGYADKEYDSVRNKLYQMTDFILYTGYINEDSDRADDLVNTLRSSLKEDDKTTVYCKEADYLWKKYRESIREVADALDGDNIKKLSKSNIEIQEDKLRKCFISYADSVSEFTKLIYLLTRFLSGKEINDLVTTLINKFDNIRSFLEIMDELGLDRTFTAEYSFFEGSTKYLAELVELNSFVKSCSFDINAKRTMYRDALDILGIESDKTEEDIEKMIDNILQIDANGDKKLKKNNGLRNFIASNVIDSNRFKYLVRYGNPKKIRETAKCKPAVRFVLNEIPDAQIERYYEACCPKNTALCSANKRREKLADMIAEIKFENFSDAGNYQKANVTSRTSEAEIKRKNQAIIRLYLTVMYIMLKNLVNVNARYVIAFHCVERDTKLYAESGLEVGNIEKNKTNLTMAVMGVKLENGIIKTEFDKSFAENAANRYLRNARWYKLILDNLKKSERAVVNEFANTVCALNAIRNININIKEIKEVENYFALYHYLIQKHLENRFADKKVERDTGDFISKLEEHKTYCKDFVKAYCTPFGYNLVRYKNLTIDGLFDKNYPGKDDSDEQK
- experiment_summary: crRNA (strand 1, pre-loaded); Mg2+; 40 mM Tris-HCl pH 7.5, 150 mM NaCl, 6 mM MgCl2, 1 mM DTT, 0.1% Tween-20, 0.2 mg/ml BSA; 25 C; 10 min per concentration, then washed
- applied_conditions: tags: His6-TwinStrep-SUMO cleaved; N-terminal SNAP kept (SNAP-Surface 488); label: 3' end held by stalled T7 RNA polymerase
measurement_label: pKd
Friendly reminder that pKd comes from taking -log10 of the concentration in mol/L.

Example results:
target 1 U11C,C22A (mixed) RNA 1: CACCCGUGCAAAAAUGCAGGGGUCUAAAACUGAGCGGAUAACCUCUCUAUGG RNA 2: GGGAAUGGAUCCACAUCUACGAAUUCGUAACAUAGAGAGGCUAUCCGCUCACCGAGAUCGGAAGAGCACACGU
7.67
target 1 A1G,C6U (mixed) RNA 1: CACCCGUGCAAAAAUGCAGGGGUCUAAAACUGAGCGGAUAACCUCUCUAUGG RNA 2: GGGAAUGGAUCCACAUCUACGAAUUCGUACCAUAGAGAGGUUAUCUGCUCGCCGAGAUCGGAAGAGCACACGU
8.05
target 1 insA 3' of 10,insU 3' of 7 (mixed) RNA 1: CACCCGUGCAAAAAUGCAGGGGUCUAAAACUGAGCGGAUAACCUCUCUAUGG RNA 2: GGGAAUGGAUCCACAUCUACGAAUUCGUACCAUAGAGAGGUUAAUCUCGCUCACCGAGAUCGGAAGAGCACACGU
7.41
target 1 U8G,U11G (mixed) RNA 1: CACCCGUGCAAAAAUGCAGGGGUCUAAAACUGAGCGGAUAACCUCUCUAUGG RNA 2: GGGAAUGGAUCCACAUCUACGAAUUCGUACCAUAGAGAGGGUAGCCGCUCACCGAGAUCGGAAGAGCACACGU
7.72
target 1 MT 5'PFS GUA 3'PFS GAA (mixed) RNA 1: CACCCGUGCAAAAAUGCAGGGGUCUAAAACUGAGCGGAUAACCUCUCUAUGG RNA 2: GGGAAUGGAUCCACAUCUACGAAUUCGUACCAUAGAGAGGUUAUCCGCUCAGAAAGAUCGGAAGAGCACACGU
7.93
target 3 U2A,U20C (mixed) RNA 1: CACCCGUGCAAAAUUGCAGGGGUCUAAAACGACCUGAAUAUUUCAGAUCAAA RNA 2: GGGAAUGGAUCCACAUCUACGAAUUCGUUUUCGAUCUGAAAUAUUCAGGACUGCAGAUCGGAAGAGCACACGU
7.13
target 3 insG 3' of 7,insU 3' of 3 (mixed) RNA 1: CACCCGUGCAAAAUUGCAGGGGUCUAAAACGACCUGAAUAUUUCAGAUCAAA RNA 2: GGGAAUGGAUCCACAUCUACGAAUUCGUUUUUGAUCUGAAAUAUUGCAGGUUCUGCAGAUCGGAAGAGCACACGU
7.32

Now look at this one.
Task: Reported pKd for target 1 MT 5'PFS GCC 3'PFS CGC (mixed) RNA 1: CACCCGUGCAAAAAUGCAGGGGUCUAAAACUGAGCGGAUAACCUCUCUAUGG RNA 2: GGGAAUGGAUCCACAUCUACGAAUUCGCCCCAUAGAGAGGUUAUCCGCUCACGCAGAUCGGAAGAGCACACGU : what is it?
Result: 7.81
